# Test system: OVCAR-8
# Assay protocol: NCI tumour cell line growth inhibition, 48 h
Activity calls are given as the source filed them. Rule as the data show it: active = GI50 up to about 1.1 µM and inactive = higher.
Returns: one label drawn from yes = active, no = inactive

Compound: N=C(c1ccccc1)N(c1ccccc1)c1ccccc1
Assigned class: no
--
Compound: CC1(C)CC2C(C1=O)C1(C)CCCC2(C)C1=O (stereo not given)
Assigned class: no
--
Compound: CCn1c(=O)ccc2ccc(N(CCO)CCO)nc21
Assigned class: no

Challenge: Could you please tell me the result logged for COc1cc(C(=O)NNC(=O)c2cc(Br)ccc2NC(=O)c2cccs2)cc(OC)c1OC in this assay?
Response given: no

Challenge: Could you please tell me the result logged for N#CC(C(=O)/C(=N/NC(=O)c1ccccc1O)C(C#N)c1ccccc1)c1ccccc1 (stereo not given) in this assay?
Response given: no

Challenge: Could you please tell me the result logged for CC(C)C(/C=C/c1ccc(Cl)c(Cl)c1)=N\NC(=O)N/N=C(/C=C/c1ccc(Cl)c(Cl)c1)C(C)C in this assay?
Response given: no

---

# Test system: HCC 2998
# Assay protocol: NCI tumour cell line growth inhibition, 48 h
Active and inactive are the calls of the source. Rule as the data show it: active = GI50 up to about 1.1 µM and inactive = higher.
Measured GI50 of individual entries

Consider the reported GI50 for these compounds:
Compound: O=[N+]([O-])c1ccc(CNC2=NNS(=O)(=O)c3ccccc32)cc1
GI50: > 100 µM (inactive)
--
Compound: C1CSC2=C(S1)SC1=C(S2)SC(=C2SC3=C(SC4=C(SCCS4)S3)S2)S1
GI50: > 100 µM (inactive)
--
Compound: COc1ccc(-n2cnc3c(NC(Cc4ccccc4)C(=O)O)ncnc32)cc1 (stereo not given)
GI50: > 100 µM (inactive)
--
Compound: CN(CN1C(=O)C2Cc3ccccc3CN2C1=O)c1ccccn1 (stereo not given)
GI50: > 100 µM (inactive)
--
Compound: C=C1C2CC(OC(C)=O)C3(C)C(c4ccoc4)OC(=O)[C@@H](O)[C@]13OC1C[C@H](OC(C)=O)C(C)(C)[C@H](CC(=O)OC)[C@]12C (stereo not given in full)
GI50: > 100 µM (inactive)

Challenge: Lab note: need GI50 for O=C1/C(=C/c2ccc(OC(=O)c3ccc(Cl)cc3)cc2)CCC/C1=C\c1ccc(OC(=O)c2ccc(Cl)cc2)cc1 on HCC 2998, anyone have it?
Response given: > 100 µM (inactive)

Challenge: Lab note: need GI50 for COC(=O)C(C(=O)Cc1ccccc1[N+](=O)[O-])C(=O)OC on HCC 2998, anyone have it?
Response given: > 100 µM (inactive)

Challenge: Lab note: need GI50 for Nc1c(Br)cc(-c2cc(Br)c(N)c(Br)c2)cc1Br on HCC 2998, anyone have it?
Response given: > 100 µM (inactive)

---

Measured GI50 of individual entries
# System: COLO 205
# Assay protocol: NCI tumour cell line growth inhibition, 48 h
Active and inactive are the calls of the source. No stated cut-off is given here; in the data, active = GI50 up to about 1.1 µM and inactive = higher.

Consider the reported GI50 for these compounds:
Compound: O=CC1=CCCC2(C1)OCCO2
Meas value: > 100 µM (inactive)
//
Compound: C=C1CC(CC(=O)C(C)CC2CC(=C)C(=O)O2)OC1=O (stereo unspecified)
Meas value: 13.6 µM (inactive)
//
Compound: [N-]=[N+]=NC[C@H]1OCO[C@H](CN=[N+]=[N-])[C@@H](OCCOCCCl)[C@@H]1OCCOCCCl
Meas value: > 100 µM (inactive)
//
Compound: COc1cc(/C=C/C(=N\NS(=O)(=O)c2ccc(C)cc2)c2sc(NNC(C)=O)nc2C)ccc1O
Meas value: > 100 µM (inactive)
//
Compound: OCC1(CNc2cc(Cl)ncn2)CCC1
Meas value: > 100 µM (inactive)

Pending compound:
Challenge: Suppose we examine the compound COC(=O)C1(C(=O)OC)CC2=C(S(=O)(=O)c3ccccc3)C[C@H](C#N)[C@H]2C1 ; what GI50 value has been reported?
Response given: 68.5 µM (inactive)

---

# Tested on: DMS-114
# Assay protocol: NCI tumour cell line growth inhibition, 48 h
Active and inactive are the calls of the source. No stated cut-off is given here; in the data, active = GI50 up to about 1.1 µM and inactive = higher.
Measured GI50 of individual entries

Compound: CC1CCCc2c(CC3CC(=O)NC(=O)C3)n[nH]c21 (configuration not stated)
Measured target: DMS-114
Meas value: > 100 µM (inactive)
//
Compound: NC(=S)N/N=C/C(=C/Nc1ccccc1)[N+](=O)[O-]
Measured target: DMS-114
Meas value: 15.7 µM (inactive)
//
Compound: COc1cccc2nc3c(C(=O)NCCN(C)C)cccc3nc12
Measured target: DMS-114
Meas value: 8.07 µM (inactive)
//
Compound: [N-]=[N+]=C1C(=O)C2CC3CC1CC2C3 (configuration not stated)
Measured target: DMS-114
Meas value: > 100 µM (inactive)
//
Compound: N#CCCN(CCC#N)c1ccc(/C=C2\N=C(c3cc([N+](=O)[O-])ccc3Cl)N(NC(=O)CC(=O)Nc3ccccc3Cl)C2=O)cc1
Measured target: DMS-114
Meas value: > 100 µM (inactive)

Challenge: Lab note: need GI50 for CCN(CC)CC1CCCCN1CC(=O)N1CC(C)C(=O)Nc2ccccc21 (configuration not stated) on DMS-114, anyone have it?
Response given: > 100 µM (inactive)

Challenge: Lab note: need GI50 for CC1=C(C(=O)Nc2ccccc2C)C(c2ccccc2)C(C(=O)Nc2ccccc2C)=C(C)N1 on DMS-114, anyone have it?
Response given: 30.4 µM (inactive)

---

# Tested on: HOP-92
# Assay protocol: NCI tumour cell line growth inhibition, 48 h
The source made the active and inactive calls. Rule as the data show it: active = GI50 up to about 1.1 µM and inactive = higher.
Returns: one label drawn from active, inactive

Molecule: COc1ccc(-c2cc(O)c3cc(C)cnc3n2)cc1
Assigned class: inactive
--
Molecule: COc1cc2c(cn1)[nH]c1ccccc12
Assigned class: inactive
--
Molecule: O=C1CC(NCc2ccccc2)c2c(Cl)sc(Cl)c21 (configuration not stated)
Assigned class: inactive

Challenge: Could you please tell me the result logged for COC(=O)C(C(=O)Cc1ccccc1[N+](=O)[O-])C(=O)OC in this assay?
Response given: inactive

Challenge: Could you please tell me the result logged for O=c1nc(N2CCN(c3ccccc3)CC2)ccn1C1OC(CO)C(O)C1O (configuration not stated) in this assay?
Response given: inactive

Challenge: Could you please tell me the result logged for CC[C@@]1(OC(=O)C(N)CCC(=O)O)C(=O)OCc2c1cc1n(c2=O)Cc2cc3ccccc3nc2-1 (some centres not stated) in this assay?
Response given: active

---

# Tested on: UO-31
# Assay protocol: NCI tumour cell line growth inhibition, 48 h
The source made the active and inactive calls. Rule as the data show it: active = GI50 up to about 1.1 µM and inactive = higher.
Reported metric: GI50

Consider the reported GI50 for these molecules:
Molecule: Nc1ncnc2c1ncn2[C@@H]1C[C@@H]1CO
Meas value: > 100 µM (inactive)

Molecule: CCN(CC)CC(=O)Nc1c(C(N)=O)nnn1Cc1cc(Cl)c(C(=O)c2ccc(Cl)cc2)c(Cl)c1
Meas value: 13.7 µM (inactive)

Molecule: COC(=O)[C@]12CCC(C)[C@H](C)[C@H]1C1=CCC3[C@@]4(C)CC[C@H](OC(C)=O)C(C)(C)C4CC[C@@]3(C)C1(C)C(O)C2 (stereo not given in full)
Meas value: > 100 µM (inactive)

Molecule: O=c1[nH]cnc2c1ncn2[C@@H]1C[C@H]1CO
Meas value: > 100 µM (inactive)

Molecule: CC1CCCP(=O)(c2ccccc2)CCC1 (stereo not given)
Meas value: > 100 µM (inactive)

Challenge: Suppose we examine the molecule Nc1cc(S(N)(=O)=O)ccc1SSc1ccc(S(N)(=O)=O)cc1N ; what GI50 value has been reported?
Response given: > 100 µM (inactive)

Challenge: Suppose we examine the molecule N#CC(C(=O)/C(=N/NC(=O)c1ccccc1O)C(C#N)c1ccccc1)c1ccccc1 (stereo not given) ; what GI50 value has been reported?
Response given: > 100 µM (inactive)

---

# Test system: SNB-19
# Assay protocol: NCI tumour cell line growth inhibition, 48 h
Active and inactive are the calls of the source. Cut-off read from the data, not from the text of the source: active = GI50 up to about 1.1 µM and inactive = higher.
Reported metric: GI50

Consider the reported GI50 for these molecules:
Molecule: Cc1ccc(S(=O)(=O)CNC(=O)C(O)(O)C(F)(F)F)cc1
Measured target: SNB-19
Reported metric: GI50
Meas value: > 100 µM (inactive)
--
Molecule: C=C1C2CC(OC(C)=O)C3(C)C(c4ccoc4)OC(=O)[C@@H](O)[C@]13OC1C[C@H](OC(C)=O)C(C)(C)[C@H](CC(=O)OC)[C@]12C (stereo partly drawn)
Measured target: SNB-19
Reported metric: GI50
Meas value: > 100 µM (inactive)
--
Molecule: Cc1cc(OCC(O)CO)ccc1Cl (stereo not drawn)
Measured target: SNB-19
Reported metric: GI50
Meas value: > 100 µM (inactive)
--
Molecule: CCOC(=N)CC(=O)NC(C)c1ccccc1 (stereo not drawn)
Measured target: SNB-19
Reported metric: GI50
Meas value: > 100 µM (inactive)
--
Molecule: COc1ccc2c(c1)c(=O)c1c(NCCCN(C)CCCNc3ccc4c(=O)n(CCN(C)C)c(=O)n5c6ccc(OC)cc6c(=O)c3c45)ccc3c(=O)n(CCN(C)C)c(=O)n2c31
Measured target: SNB-19
Reported metric: GI50
Meas value: < 0.01 µM (active)

Challenge: Suppose we examine the molecule CC1CCCc2c(CC3CC(=O)NC(=O)C3)n[nH]c21 (stereo not drawn) ; what GI50 value has been reported?
Response given: > 100 µM (inactive)
